assay: Metabolic stability in rat liver microsomes assessed as half-life at 0.1 uM preincubated for 10 mins followed by NADPH addition and measured upto 60 mins by LC-MS/MS analysis; assay type: ADME, Microsome; conditions: time < 70 min
Experimental Endpoint: half-life at 0.1 µM (min)

INSERT INTO results (molecule, numeric_value) VALUES
  ('Cc1cc(/C=C/C#N)cc(C)c1Nc1ccnc(Nc2ccc(C#N)cc2)n1 [RILPIVIRINE]', 7.29),
  ('Cc1cc(-c2ccncc2)cc(C)c1Nc1nc(Nc2ccc(C#N)cc2)ncc1-c1cn[nH]c1', 20.4),
  ('Cc1cc(C#N)cc(C)c1Oc1nc(Nc2ccc(C#N)cc2)nc(N)c1Br [ETRAVIRINE]', 13.5),
  ('N#Cc1ccc(Nc2nccc(Nc3c(F)cc(-c4ccncc4)cc3F)n2)cc1', 13);

###

experiment: Selectivity index, ratio of CC50 for human MT4 cells to EC50 for wild type HIV-1 IIIB infected in human MT4 cellS; conditions: MT4 cells
// map selectivity ratio to label using bin 0: < 6000; bin 1: ≥ 6000 and < 20000; bin 2: ≥ 20000

INSERT INTO results (chem_smiles, classification) VALUES
  ('Cc1cc(-c2ccncc2)cc(C)c1Nc1nc(Nc2ccc(C#N)cc2)ncc1-c1cncc(N)c1', 'bin 0'),
  ('Cc1cc(-c2ccncc2)cc(C)c1Nc1nc(Nc2ccc(C#N)cc2)ncc1-c1cn[nH]c1', 'bin 2'),
  ('Cc1cc(-c2cnc(Nc3ccc(C#N)cc3)nc2Nc2c(C)cc(-c3ccncc3)cc2C)ccn1', 'bin 0'),
  ('Cc1cc(-c2ccncc2)cc(C)c1Nc1nc(Nc2ccc(C#N)cc2)ncc1-c1ccc(F)nc1', 'bin 0'),
  ('N#Cc1ccc(Nc2ncc(-c3ccc(Cl)nc3)c(Nc3c(F)cc(-c4ccncc4)cc3F)n2)cc1', 'bin 1'),
  ('Cc1ccc(-c2cnc(Nc3ccc(C#N)cc3)nc2Nc2c(C)cc(-c3ccncc3)cc2C)cn1', 'bin 2'),
  ('N#Cc1ccc(Nc2ncc(-c3ccc(N)nc3)c(Nc3c(F)cc(-c4ccncc4)cc3F)n2)cc1', 'bin 0'),
  ('COc1cc(-c2cnc(Nc3ccc(C#N)cc3)nc2Nc2c(C)cc(-c3ccncc3)cc2C)ccn1', 'bin 1'),
  ('Cc1cc(-c2ccncc2)cc(C)c1Nc1nc(Nc2ccc(C#N)cc2)ncc1-c1ccnc(Cl)c1', 'bin 2'),
  ('N#Cc1ccc(Nc2ncc(-c3ccc(F)nc3)c(Nc3c(F)cc(-c4ccncc4)cc3F)n2)cc1', 'bin 1');

###

molecular target: UniProt:P08684; assay: Inhibition of CYP3A4 in human liver microsomes using midazolam as substrate preincubated for 10 mins followed by NADPH addition and measured after 15 mins by LC/MS/MS analysis
Sequence (P08684 whole entry): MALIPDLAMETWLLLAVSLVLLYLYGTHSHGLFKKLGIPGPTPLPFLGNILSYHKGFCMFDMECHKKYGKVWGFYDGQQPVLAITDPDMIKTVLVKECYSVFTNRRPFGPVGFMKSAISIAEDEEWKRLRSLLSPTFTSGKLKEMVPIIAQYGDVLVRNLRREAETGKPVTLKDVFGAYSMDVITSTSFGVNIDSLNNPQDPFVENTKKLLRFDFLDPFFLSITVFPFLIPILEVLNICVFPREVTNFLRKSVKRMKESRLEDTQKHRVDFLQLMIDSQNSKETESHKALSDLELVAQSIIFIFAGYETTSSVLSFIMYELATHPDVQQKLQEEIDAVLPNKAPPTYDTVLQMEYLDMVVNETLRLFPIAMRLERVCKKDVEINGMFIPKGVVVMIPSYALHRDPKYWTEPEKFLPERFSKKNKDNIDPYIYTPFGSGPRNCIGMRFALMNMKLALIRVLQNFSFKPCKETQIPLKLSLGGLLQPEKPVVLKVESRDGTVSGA
pIC50: −log10 of the molar value.
Experimental Endpoint: pIC50

INSERT INTO measurements (chem_smiles, result) VALUES
  ('Cc1cc(-c2ccncc2)cc(C)c1Nc1nc(Nc2ccc(C#N)cc2)ncc1-c1cn[nH]c1', '< 4.30');

###

test system: Human immunodeficiency virus 1; test: Antiviral activity against HIV-1 harboring RT K103N mutant infected in human MT4 cells assessed as protection against virus-induced cytopathic effect incubated for 5 days by MTT assay; format: functional, organism-based; details: Human immunodeficiency virus 1, MT4, 120 h
pEC50: −log10 of the molar value.
Experimental Endpoint: pEC50

INSERT INTO assay_data (chem_smiles, study_system, experimental_endpoint, numeric_value) VALUES
  ('Cc1cc(-c2ccncc2)cc(C)c1Nc1nc(Nc2ccc(C#N)cc2)ncc1-c1ccnc(F)c1', 'Human immunodeficiency virus 1', 'pEC50', 8.15),
  ('Cc1cc(-c2ccncc2)cc(C)c1Nc1nc(Nc2ccc(C#N)cc2)ncc1-c1ccnc(Cl)c1', 'Human immunodeficiency virus 1', 'pEC50', 7.72),
  ('Cc1cc(-c2ccncc2)cc(C)c1Nc1nc(Nc2ccc(C#N)cc2)ncc1-c1cccs1', 'Human immunodeficiency virus 1', 'pEC50', 8.30),
  ('Cc1cc(-c2ccncc2)cc(C)c1Nc1nc(Nc2ccc(C#N)cc2)ncc1-c1cncc(Cl)c1', 'Human immunodeficiency virus 1', 'pEC50', 7.43),
  ('Cc1cc(-c2ccncc2)cc(C)c1Nc1nc(Nc2ccc(C#N)cc2)ncc1-c1ccco1', 'Human immunodeficiency virus 1', 'pEC50', 8.52),
  ('Cc1cc(-c2ccncc2)cc(C)c1Nc1nc(Nc2ccc(C#N)cc2)ncc1-c1ccncc1', 'Human immunodeficiency virus 1', 'pEC50', 7.64),
  ('COc1ncc(-c2cnc(Nc3ccc(C#N)cc3)nc2Nc2c(C)cc(-c3ccncc3)cc2C)cc1N', 'Human immunodeficiency virus 1', 'pEC50', 8.00),
  ('Cc1ccc(-c2cnc(Nc3ccc(C#N)cc3)nc2Nc2c(C)cc(-c3ccncc3)cc2C)cn1', 'Human immunodeficiency virus 1', 'pEC50', 8.22),
  ('COc1cc(-c2cnc(Nc3ccc(C#N)cc3)nc2Nc2c(C)cc(-c3ccncc3)cc2C)ccn1', 'Human immunodeficiency virus 1', 'pEC50', 7.68),
  ('Cc1cc(-c2ccncc2)cc(C)c1Nc1nc(Nc2ccc(C#N)cc2)ncc1-c1ccc(N)nc1', 'Human immunodeficiency virus 1', 'pEC50', 7.96),
  ('Cc1cc(-c2ccncc2)cc(C)c1Nc1nc(Nc2ccc(C#N)cc2)ncc1-c1cn[nH]c1', 'Human immunodeficiency virus 1', 'pEC50', 8.15),
  ('Cc1cc(-c2ccncc2)cc(C)c1Nc1nc(Nc2ccc(C#N)cc2)ncc1-c1cncc(N)c1', 'Human immunodeficiency virus 1', 'pEC50', 8.15),
  ('Cc1cc(-c2ccncc2)cc(C)c1Nc1nc(Nc2ccc(C#N)cc2)ncc1-c1ccc(F)nc1', 'Human immunodeficiency virus 1', 'pEC50', 8.05),
  ('Cc1cn([C@H]2C[C@H](N=[N+]=[N-])[C@@H](CO)O2)c(=O)[nH]c1=O', 'Human immunodeficiency virus 1', 'pEC50', 7.60),
  ('Cc1cc(-c2ccncc2)cc(C)c1Nc1nc(Nc2ccc(C#N)cc2)ncc1-c1ccsc1', 'Human immunodeficiency virus 1', 'pEC50', 8.10),
  ('Cc1cc(-c2cnc(Nc3ccc(C#N)cc3)nc2Nc2c(C)cc(-c3ccncc3)cc2C)ccn1', 'Human immunodeficiency virus 1', 'pEC50', 7.68),
  ('O=C1Nc2ccc(Cl)cc2[C@@](C#CC2CC2)(C(F)(F)F)O1', 'Human immunodeficiency virus 1', 'pEC50', 7.23),
  ('N#Cc1ccc(Nc2nccc(Nc3c(F)cc(-c4ccncc4)cc3F)n2)cc1', 'Human immunodeficiency virus 1', 'pEC50', 8.70);

###

molecular target: UniProt:Q12809; experiment: Inhibition of human ERG expressed in CHO cells at holding potential of -80 mV at >40 uM by automated patch clamp electrophysiological method relative to control; format: toxicity, cell-based; settings: CHO cells that express hERG
Sequence (Q12809 whole entry): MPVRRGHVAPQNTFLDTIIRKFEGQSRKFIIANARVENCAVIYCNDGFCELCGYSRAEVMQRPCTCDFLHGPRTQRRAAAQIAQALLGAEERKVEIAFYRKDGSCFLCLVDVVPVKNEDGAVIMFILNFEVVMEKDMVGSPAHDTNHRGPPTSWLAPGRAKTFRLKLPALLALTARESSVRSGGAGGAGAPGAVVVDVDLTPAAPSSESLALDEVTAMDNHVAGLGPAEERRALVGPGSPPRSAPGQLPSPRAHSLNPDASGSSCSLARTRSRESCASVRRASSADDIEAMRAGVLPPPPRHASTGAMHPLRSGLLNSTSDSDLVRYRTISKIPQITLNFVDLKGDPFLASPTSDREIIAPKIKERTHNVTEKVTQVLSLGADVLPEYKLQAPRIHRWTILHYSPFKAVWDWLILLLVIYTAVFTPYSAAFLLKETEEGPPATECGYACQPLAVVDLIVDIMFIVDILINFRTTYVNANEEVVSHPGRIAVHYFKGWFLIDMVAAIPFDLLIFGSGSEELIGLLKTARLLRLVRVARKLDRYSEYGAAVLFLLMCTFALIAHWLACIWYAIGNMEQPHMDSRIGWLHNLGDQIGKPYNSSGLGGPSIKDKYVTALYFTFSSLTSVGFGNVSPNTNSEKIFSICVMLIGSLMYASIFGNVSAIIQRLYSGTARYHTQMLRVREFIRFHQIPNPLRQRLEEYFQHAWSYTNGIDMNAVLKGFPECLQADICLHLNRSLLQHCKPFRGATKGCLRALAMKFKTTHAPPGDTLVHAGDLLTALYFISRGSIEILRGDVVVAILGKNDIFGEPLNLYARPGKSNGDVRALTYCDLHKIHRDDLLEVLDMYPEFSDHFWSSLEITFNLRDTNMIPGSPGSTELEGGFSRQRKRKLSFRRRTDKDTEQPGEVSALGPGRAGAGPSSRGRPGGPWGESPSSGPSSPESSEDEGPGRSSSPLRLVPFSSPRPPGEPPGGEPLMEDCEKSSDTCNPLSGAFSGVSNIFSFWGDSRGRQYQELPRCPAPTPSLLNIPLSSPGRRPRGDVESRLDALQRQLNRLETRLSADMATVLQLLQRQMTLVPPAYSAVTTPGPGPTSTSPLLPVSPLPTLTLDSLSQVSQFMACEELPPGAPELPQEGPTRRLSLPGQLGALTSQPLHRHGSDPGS
Experimental Endpoint: inhibition at 40 µM (%)

INSERT INTO results (chem_smiles, study_system, experimental_endpoint, unit_symbol, numeric_value) VALUES
  ('Cc1cc(-c2ccncc2)cc(C)c1Nc1nc(Nc2ccc(C#N)cc2)ncc1-c1cn[nH]c1', 'UniProt:Q12809', 'inhibition at 40 µM', '%', 31.4);

###

test: Clearance in male Sprague-Dawley rat at 1 mg/kg, iv measured after 24 hrs by LC-MS analysis; format: ADME, organism-based; details: in vivo
Experimental Endpoint: clearance (mL/min/kg)

INSERT INTO measurements (chem_smiles, numeric_value) VALUES
  ('Cc1cc(-c2ccncc2)cc(C)c1Nc1nc(Nc2ccc(C#N)cc2)ncc1-c1cn[nH]c1.Cl', 30.3);

###

Target protein (sequence): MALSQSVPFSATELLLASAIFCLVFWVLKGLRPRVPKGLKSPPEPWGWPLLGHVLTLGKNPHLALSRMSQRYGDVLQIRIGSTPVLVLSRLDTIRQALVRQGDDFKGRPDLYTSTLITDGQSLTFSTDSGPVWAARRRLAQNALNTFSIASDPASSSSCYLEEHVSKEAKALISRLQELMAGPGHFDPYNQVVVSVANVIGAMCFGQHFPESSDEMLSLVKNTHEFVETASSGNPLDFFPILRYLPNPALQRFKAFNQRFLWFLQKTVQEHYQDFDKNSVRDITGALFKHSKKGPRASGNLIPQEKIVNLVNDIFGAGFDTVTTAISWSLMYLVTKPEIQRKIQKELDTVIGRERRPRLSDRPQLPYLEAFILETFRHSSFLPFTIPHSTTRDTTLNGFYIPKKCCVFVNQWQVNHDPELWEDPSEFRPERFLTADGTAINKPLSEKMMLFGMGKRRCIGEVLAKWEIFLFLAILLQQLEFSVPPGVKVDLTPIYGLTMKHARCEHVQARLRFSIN
pIC50: −log10 of the molar value.
Experimental Endpoint: pIC50

INSERT INTO measurements (chem_smiles, experimental_endpoint, result) VALUES
  ('Cc1cc(-c2ccncc2)cc(C)c1Nc1nc(Nc2ccc(C#N)cc2)ncc1-c1cn[nH]c1', 'pIC50', '< 4.30');
